Quick reference for residual activity 1A3 among some molecules
Target: UniProtKB P35503
Sequence (P35503 29-534): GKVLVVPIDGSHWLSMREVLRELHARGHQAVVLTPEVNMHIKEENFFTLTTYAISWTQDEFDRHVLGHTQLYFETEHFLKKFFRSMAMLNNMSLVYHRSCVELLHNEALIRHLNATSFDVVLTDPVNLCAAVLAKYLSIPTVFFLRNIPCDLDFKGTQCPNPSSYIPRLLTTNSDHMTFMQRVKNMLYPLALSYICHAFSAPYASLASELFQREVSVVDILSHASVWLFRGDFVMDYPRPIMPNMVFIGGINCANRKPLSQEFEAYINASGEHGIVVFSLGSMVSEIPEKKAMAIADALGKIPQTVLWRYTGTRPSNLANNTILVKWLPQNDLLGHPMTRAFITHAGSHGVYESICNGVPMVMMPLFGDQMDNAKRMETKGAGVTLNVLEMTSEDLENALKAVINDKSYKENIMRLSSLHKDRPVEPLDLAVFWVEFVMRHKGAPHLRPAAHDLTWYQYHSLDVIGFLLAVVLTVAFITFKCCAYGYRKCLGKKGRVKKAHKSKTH
Assay: UGT1A3 supersomes-catalyzed 4-MU glucuronidation inhibition
Settings: 50 μM LPC components; recombinant human UGT; mean of triplicate
Numbers only; they are read as %.

Observe how each entry below is paired with its result.
>>> observed("CCCCCCCCCCCC(=O)OC[C@@H](O)COP(=O)([O-])OCC[N+](C)(C)C")
74.8
>>> observed("CCCCCCCCCCCCCC(=O)OC[C@@H](O)COP(=O)([O-])OCC[N+](C)(C)C")
74.2

// next item, residual activity 1A3 requested
Would you kindly share the measured residual activity 1A3 for CCCCCCCCCCCCCCCCC(=O)OC[C@@H](O)COP(=O)([O-])OCC[N+](C)(C)C ?
119.0

----------
target: UGT1A4 (Homo sapiens, UniProt P22310); assay: UGT1A4-catalyzed trifluoperazine; conditions: recombinant human UGT1A4, probe trifluoperazine (TFP), 40 μM
Sequence (P22310 29-534): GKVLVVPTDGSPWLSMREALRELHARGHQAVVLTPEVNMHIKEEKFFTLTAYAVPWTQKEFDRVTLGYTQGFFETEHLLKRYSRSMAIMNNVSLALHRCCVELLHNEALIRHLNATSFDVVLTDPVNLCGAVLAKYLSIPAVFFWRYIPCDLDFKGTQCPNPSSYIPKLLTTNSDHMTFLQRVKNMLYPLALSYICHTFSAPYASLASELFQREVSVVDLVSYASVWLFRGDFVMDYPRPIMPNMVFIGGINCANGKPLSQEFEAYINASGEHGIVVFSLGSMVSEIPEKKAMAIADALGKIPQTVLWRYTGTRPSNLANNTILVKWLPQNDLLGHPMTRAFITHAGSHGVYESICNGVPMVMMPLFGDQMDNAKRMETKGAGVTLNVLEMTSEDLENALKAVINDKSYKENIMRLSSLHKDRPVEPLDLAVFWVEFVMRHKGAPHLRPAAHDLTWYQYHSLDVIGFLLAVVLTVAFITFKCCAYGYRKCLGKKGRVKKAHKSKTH
RECORDED_METRIC: inhibition at 20 min, 50 µM

Query inhibition at 20 min, 50 µM on UGT1A4 (Homo sapiens, UniProt P22310) for CCCCCCCCCCCCCCCC(=O)OC[C@H](COP(=O)([O-])OCC[N+](C)(C)C)OC(C)=O [PC 16:0, 2:0]
94.5%

----------
target: UGT1A3 (Homo sapiens, UniProt P35503); assay: UGT1A3 supersomes-catalyzed 4-MU glucuronidation inhibition; details: 50 μM PC components; recombinant human UGT; mean of triplicate
RECORDED_METRIC: residual activity 1A3
Number first, unit second: that is the form wanted.

Observe how each entry below is paired with its result.
>>> observed("CCCCCCCCCCCC(=O)OC[C@H](COP(=O)([O-])OCC[N+](C)(C)C)OC(=O)CCCCCCCCCCC")
"93.0%"
>>> observed("CCCCCCCCCCCCCCCCCCC(=O)OC[C@H](COP(=O)([O-])OCC[N+](C)(C)C)OC(=O)CCCCCCCCCCCCCCCCCC")
"75.9%"

Would you kindly share the measured residual activity 1A3 for CCCCCC(=O)OC[C@H](COP(=O)([O-])OCC[N+](C)(C)C)OC(=O)CCCCC ?
105.1%

----------
Target: UGT2B4 (Homo sapiens)
Sequence (P06133 24-528): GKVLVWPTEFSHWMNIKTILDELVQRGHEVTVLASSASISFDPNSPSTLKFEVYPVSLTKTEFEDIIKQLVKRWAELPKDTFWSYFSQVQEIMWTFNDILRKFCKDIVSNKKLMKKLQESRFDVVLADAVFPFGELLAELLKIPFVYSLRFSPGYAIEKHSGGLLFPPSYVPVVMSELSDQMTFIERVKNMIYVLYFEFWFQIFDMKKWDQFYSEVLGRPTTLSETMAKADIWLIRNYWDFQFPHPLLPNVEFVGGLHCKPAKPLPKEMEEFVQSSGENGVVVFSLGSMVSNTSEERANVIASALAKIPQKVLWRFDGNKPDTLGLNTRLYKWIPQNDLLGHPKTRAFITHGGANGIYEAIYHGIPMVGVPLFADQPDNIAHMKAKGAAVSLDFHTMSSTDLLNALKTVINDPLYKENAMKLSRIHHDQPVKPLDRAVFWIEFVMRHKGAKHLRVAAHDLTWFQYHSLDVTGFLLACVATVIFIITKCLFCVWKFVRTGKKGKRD
Test: UGT2B4 supersomes-catalyzed 4-MU glucuronidation inhibition
Details: 50 μM PC components; recombinant human UGT; mean of triplicate
RECORDED_METRIC: residual activity 2B4
Number first, unit second: that is the form wanted.

Observe how each entry below is paired with its result.
>>> observed("CCCCCCCCCCCCCCCCCCCC(=O)OC[C@H](COP(=O)([O-])OCC[N+](C)(C)C)OC(=O)CCCCCCCCCCCCCCCCCCC [PC 20:0, 20:0]")
"79.5%"
>>> observed("CCCCCCCCCCCC(=O)OC[C@H](COP(=O)([O-])OCC[N+](C)(C)C)OC(=O)CCCCCCCCCCC [PC 12:0, 12:0]")
"182.7%"

Would you kindly share the measured residual activity 2B4 for CCCCCCCCCCCCCCCCCC(=O)OC[C@H](COP(=O)([O-])OCC[N+](C)(C)C)OC(=O)CCCCCCCCCCCCCCCCC [PC 18:0, 18:0] ?
93.4%

Would you kindly share the measured residual activity 2B4 for CCCCCCCCCCCCCCCCC(=O)OC[C@H](COP(=O)([O-])OCC[N+](C)(C)C)OC(=O)CCCCCCCCCCCCCCCC [PC 17:0, 17:0] ?
175.4%

Would you kindly share the measured residual activity 2B4 for CCCCCCCCCCCCCCCCCCC(=O)OC[C@H](COP(=O)([O-])OCC[N+](C)(C)C)OC(=O)CCCCCCCCCCCCCCCCCC [PC 19:0, 19:0] ?
83.4%

Would you kindly share the measured residual activity 2B4 for CCCCCCCCCCC(=O)OC[C@H](COP(=O)([O-])OCC[N+](C)(C)C)OC(=O)CCCCCCCCCC [PC 11:0, 11:0] ?
181.0%

Would you kindly share the measured residual activity 2B4 for CCCCCCCCCCCCCC(=O)OC[C@H](COP(=O)([O-])OCC[N+](C)(C)C)OC(=O)CCCCCCCCCCCCC [PC 14:0, 14:0] ?
179.0%

Would you kindly share the measured residual activity 2B4 for CCCCCCCCCCCCCCCCCCCCCC(=O)OC[C@H](COP(=O)([O-])OCC[N+](C)(C)C)OC(=O)CCCCCCCCCCCCCCCCCCCCC [PC 22:0, 22:0] ?
60.0%

Would you kindly share the measured residual activity 2B4 for CCCCCCCCCCCCCCCCCCCCCCC(=O)OC[C@H](COP(=O)([O-])OCC[N+](C)(C)C)OC(=O)CCCCCCCCCCCCCCCCCCCCCC [PC 23:0, 23:0] ?
168.3%

Would you kindly share the measured residual activity 2B4 for CCCCCCCC(=O)OC[C@H](COP(=O)([O-])OCC[N+](C)(C)C)OC(=O)CCCCCCC [PC 8:0, 8:0] ?
173.1%

Would you kindly share the measured residual activity 2B4 for CCCCCCCCCCCCCCCC(=O)OC[C@H](COP(=O)([O-])OCC[N+](C)(C)C)OC(=O)CCCCCCCCCCCCCCC [PC 16:0, 16:0] ?
185.1%

----------
target: UGT1A6 (Homo sapiens, UniProt P19224); conditions: 50 μM LPC components; recombinant human UGT; mean of triplicate
Sequence (P19224 27-532): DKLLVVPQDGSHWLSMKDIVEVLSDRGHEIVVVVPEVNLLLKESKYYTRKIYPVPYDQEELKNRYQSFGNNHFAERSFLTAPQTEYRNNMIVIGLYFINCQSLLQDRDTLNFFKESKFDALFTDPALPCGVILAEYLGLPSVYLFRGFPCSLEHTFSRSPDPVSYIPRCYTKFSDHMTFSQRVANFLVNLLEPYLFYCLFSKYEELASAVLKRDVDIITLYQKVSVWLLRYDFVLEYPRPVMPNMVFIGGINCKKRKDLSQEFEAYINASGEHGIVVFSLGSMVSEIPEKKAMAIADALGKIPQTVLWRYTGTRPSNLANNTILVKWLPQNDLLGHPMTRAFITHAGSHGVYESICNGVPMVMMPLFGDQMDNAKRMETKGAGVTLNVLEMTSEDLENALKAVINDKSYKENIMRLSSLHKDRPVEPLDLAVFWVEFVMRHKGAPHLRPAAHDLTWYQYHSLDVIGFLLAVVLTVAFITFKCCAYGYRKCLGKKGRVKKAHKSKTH
RECORDED_METRIC: residual activity 1A6 (%)
Numbers only; they are read as %.

Observe how each entry below is paired with its result.
>>> observed("CCCCCCCCCCCCCCCCCC(=O)OC[C@@H](O)COP(=O)([O-])OCC[N+](C)(C)C [LPC 18:0]")
4.3
>>> observed("CCCCCCCCCCCC(=O)OC[C@@H](O)COP(=O)([O-])OCC[N+](C)(C)C [LPC 12:0]")
80.2
>>> observed("CCCCCCCCCCC(=O)OC[C@@H](O)COP(=O)([O-])OCC[N+](C)(C)C [LPC 11:0]")
65.7
>>> observed("CCCCCCCCCCCCCCCCC(=O)OC[C@@H](O)COP(=O)([O-])OCC[N+](C)(C)C [LPC 17:0]")
8.5

Would you kindly share the measured residual activity 1A6 for CCCCCCCCCC(=O)OC[C@@H](O)COP(=O)([O-])OCC[N+](C)(C)C [LPC 10:0] ?
65.7

----------
biological target: UGT1A3 (Homo sapiens); assay: UGT1A3 supersomes-catalyzed 4-MU glucuronidation inhibition; settings: 50 μM LPC components; recombinant human UGT; mean of triplicate
Quick reference for residual activity 1A3 among some molecules

Observe how each entry below is paired with its result.
>>> observed("CCCCCCCCCCCCCCC(=O)OC[C@@H](O)COP(=O)([O-])OCC[N+](C)(C)C [LPC 15:0]")
"52.8%"
>>> observed("CCCCCCCCCCCCC(=O)OC[C@@H](O)COP(=O)([O-])OCC[N+](C)(C)C [LPC 13:0]")
"88.1%"

Would you kindly share the measured residual activity 1A3 for CCCCCCC(=O)OCC(O)COP(=O)([O-])OCC[N+](C)(C)C (centres unmarked) [LPC 7:0] ?
80.4%

Would you kindly share the measured residual activity 1A3 for CCCCCCCC(=O)OCC(O)COP(=O)([O-])OCC[N+](C)(C)C (centres unmarked) [LPC 8:0] ?
80.3%

Would you kindly share the measured residual activity 1A3 for CCCCCCCCCC(=O)OC[C@@H](O)COP(=O)([O-])OCC[N+](C)(C)C [LPC 10:0] ?
75.9%
